Origin of measurements: PubChem BioAssay (NCI)

Test system: SNB-75 CNS
assayText: NCI tumour cell line growth inhibition, 48 h; in the data active means GI50 below about 0.43 µM; inactive means the rest
Tick one outcome: active, inactive

compound: COc1cc2c(cc1-c1c(C)noc1C)ncc1nc(C3CCCCC3)n(C3CCC(OC(F)F)CC3)c12 (stereo not drawn)
measurementTarget: SNB-75 CNS
labelValue: inactive

compound: CO/N=C1/c2cc(OC)ccc2-c2c(NOC)nc3ccccc3c21
measurementTarget: SNB-75 CNS
labelValue: inactive

compound: Cc1ccc(Cl)cc1Nc1nc(C(F)(F)F)ccc1C(=O)Oc1ccc(Cl)cc1
measurementTarget: SNB-75 CNS
labelValue: inactive

compound: Cc1nc2cc(O)c(O)cc2cc1Oc1ccc(NC(=O)Nc2ccc(Cl)c(Cl)c2)cc1
measurementTarget: SNB-75 CNS
labelValue: inactive

compound: CN(C)CCn1cc(-c2ccc3c(Nc4ccc(CC(=O)Nc5cccc(F)c5)cc4)ncnc3c2)cn1
measurementTarget: SNB-75 CNS
labelValue: active

How was `Cn1c2ccccc2c2c3c(c4c5ccccc5n(CCCCCC#N)c4c21)C(=O)N(O)C3=O` classified in this test?
inactive

Try `C[n+]1c2ccccc2c(NC2CCNCC2)c2[nH]c3ccccc3c21` next.
inactive

----------
System: OVCAR-8 ovarian
assayText: NCI tumour cell line growth inhibition, 48 h
Label yes when TGI >= 20 µM; otherwise no.

compound: CC(C)[C@]12O[C@H]1[C@@H]1O[C@]13[C@]1(O[C@H]1C[C@H]1c4c(C(=O)c5ccccc5)oc(OC(=O)c5ccccc5)c4CC[C@@]13C)[C@@H]2O
labelValue: yes
--
compound: O=c1c(-c2ccccc2)c[nH]c2cc([N+](=O)[O-])c(/C(Cl)=C/c3ccccc3)cc12
labelValue: no
--
compound: Cc1ccc(Nc2ncnc3sc(SCc4ccccc4)nc23)cc1
labelValue: yes
--
compound: CCOC(=O)Nc1ccc(S(=O)(=O)Nc2ccc(Br)cc2)cc1
labelValue: yes
--
compound: CCCCCCCCCCCCCC(=O)OCC1OC(OC)C(NC(=O)N(CCCl)N=O)C(O)C1O (stereo unspecified)
labelValue: yes
--
compound: Nc1nc(Cl)cc(NCC2(CO)CC(CCCCc3ccccc3)C2)n1 (stereo unspecified)
labelValue: yes

Exam item: decide whether the reported TGI for `CCOC(=O)c1c(OCC)[nH]c(=O)c(C(c2ccc(F)cc2)c2c(O)c(C(=O)OCC)c(OCC)[nH]c2=O)c1O` is at least 20 µM.
yes

Try `CCOC(=O)C(=Cc1ccccc1Br)C(=O)OCC` next.
no

Try `COc1ccccc1NC(=O)C1=C(C)NC(C)=C(C(=O)Nc2ccccc2OC)C1c1ccc(C(C)C)cc1` next.
yes

Try `NC(=O)c1cc2ccccc2c(N=Nc2ccccc2)c1O` next.
yes

----------
TGI: recorded values
System: SW-620 colon
assayText: NCI tumour cell line growth inhibition, 48 h

Examples from the recorded data:
molecule: N#Cc1c2ccccc2c2nnc3cc(Cl)c(Cl)cc3n12
measurementTarget: SW-620 colon
TGI: > 100 µM

molecule: O=c1c(-c2ccccc2)c[nH]c2cc([N+](=O)[O-])c(/C(Cl)=C/c3ccccc3)cc12
measurementTarget: SW-620 colon
TGI: 26.8 µM

molecule: CC1(C)COC(c2cccc(C3=NC(C)(C)CO3)c2)=N1
measurementTarget: SW-620 colon
TGI: > 100 µM

molecule: O=C(CC1C(=O)Nc2ccccc2S1=O)Nc1cccc(Cl)c1 (stereo unspecified)
measurementTarget: SW-620 colon
TGI: > 100 µM

molecule: CCC(C#N)N(Cc1cccc(CN(C(C)=O)C(C#N)CC)c1)C(C)=O (stereo unspecified)
measurementTarget: SW-620 colon
TGI: > 100 µM

molecule: Cc1cc(Cl)ccc1NC(=O)C1C(=O)N(c2ccc(Cl)cc2C)C(=O)/C1=N\N (stereo unspecified)
measurementTarget: SW-620 colon
TGI: > 100 µM

molecule: Cc1cc2c(=O)cc(-c3ccc(Cl)cc3)oc2c(C(=O)O)c1C
measurementTarget: SW-620 colon
TGI: > 100 µM

molecule: C/C=C/C1(NS(=O)(=O)c2ccc(C)cc2)CCC(C(C)(C)C)CC1 (stereo unspecified)
measurementTarget: SW-620 colon
TGI: 67.3 µM

Observed TGI on SW-620 colon for `O=C1c2cc3c(cc2-c2c1c1ccc([N+](=O)[O-])cc1c(=O)n2CCCCl)OCO3` , please.
> 100 µM

Try `CC(C)(C)NNc1c([N+](=O)[O-])cnn(-c2ccccc2)c1=O` next.
3.41 µM

Try `N#Cc1nn(-c2ccc(Cl)cc2)c(N)c2c(=N)n3nc(-c4ccccc4)cc3nc12` next.
> 100 µM

Try CC1OC(OC2C(CO)OC(O[C@H]3CC[C@@]4(C)C(=CC[C@H]5[C@@H]6C[C@@H]7O[C@](O)(CC[C@@H](C)COC8OC(CO)C(O)C(O)C8O)[C@@H](C)[C@@H]7[C@@]6(C)CC[C@@H]54)C3)C(OC3OC(C)C(O)C(O)C3O)C2O)C(O)C(O)C1O (stereo partly specified) next.
2.97 µM

Try `O=Cc1cc(O)c(O)c(O)c1-c1c(C=O)cc(O)c(O)c1O` next.
> 100 µM
